test system: MALME-3M melanoma; test: NCI tumour cell line growth inhibition, 48 h
quantityMeasured: TGI (µM)
Your answer is read as µM, so omit the unit and give the number.

Some entries whose results are on file:
compound	TGI, µM
C=C(C)[C@@H]1CC[C@]2(C(=O)O)CC[C@]3(C)[C@H](CC[C@@H]4[C@@]5(C)CCC(NC(=O)c6cccc(OC(C)=O)c6OC(C)=O)C(C)(C)[C@@H]5CC[C@]43C)[C@@H]12 (some centres not stated)	1.47
COc1cccc(/C=C/[N+](=O)[O-])c1	27.8
COc1cc2c(cc1OC)-c1ccc3cc4c(cc3c1N(CCCn1ccnc1)C2)OCO4	10.7
Clc1ccc(OCc2nnc(CCCCCCCCc3nnc(COc4ccc(Cl)cc4Cl)n3Nc3ccccc3)n2Nc2ccccc2)c(Cl)c1	40.6

Here's the next entry for you.
Input line: Find the recorded TGI belonging to `Nc1nc(N)c2cc(-c3ccccc3)cnc2n1` and report it.
Output line: 21.7

====

tested on: HOP-62 NSCLC; assay: NCI tumour cell line growth inhibition, 48 h
Form field: TGI (one value per entry).

Check out these entries, answers already filled in.
molecule	assayResult
CC(=O)[C@@H]1C/C(=C\OCc2ccccc2)O[C@H]1C	> 100 µM
N#CC(C#N)=C/C=C(\Sc1c(Cl)c(Cl)nc(Cl)c1Cl)c1ccc(Cl)cc1	96.6 µM
O=C1C=CC(=O)C12CCc1ccccc12	> 100 µM

Input line: // returns reported TGI for input CC(NO)/C(=N/O)c1ccco1 (stereo not given)
Output line: > 10 µM

====

test system: CAKI-1 renal; test: NCI tumour cell line growth inhibition, 48 h
quantityMeasured: TGI

compound	TGI
COc1ccc(-c2c3c(cc4cc5c(cc24)OCO5)C(=O)OC3)cc1OC	> 63.4 µM

Input line: // query TGI value for entry `COC(=O)C1=C(O)c2cc(-c3ccccc3)c(-c3ccccc3)c(C#N)c2NC(=O)C1`
Output line: 85.8 µM

Input line: Try `Oc1cc2c3c(c1)CCCN3CCC2` next.
Output line: > 10 µM

Input line: Try this compound next: COC(=O)c1ccccc1C1CN=NC12Cc1ccccc1C2=O (centres undefined)
Output line: > 100 µM

Input line: Now consider `Cc1n[nH]c(=O)n1/N=C/c1ccc(F)cc1` and answer again.
Output line: > 100 µM

Input line: Then `CO[C@@H]1C[C@H]2[C@@H]3CC[C@H]([C@@H](C)CO)[C@@]3(C)CC[C@@H]2[C@@]2(C)CC[C@H]3C[C@]312` ?
Output line: > 100 µM

Input line: Thanks! And `CC(=O)c1cccc(C)c1C(=O)O` ?
Output line: > 100 µM

Input line: And for CC(=O)[CH-]C(=O)c1ccccc1.CC(=O)[CH-]C(=O)c1ccccc1.CC(C)CCCC(C)[C@H]1CCC2[C@@H]3CC=C4C[C@@H]([O-])CC[C@]4(C)C3CC[C@@]21C.CC(C)CCCC(C)[C@H]1CCC2[C@@H]3CC=C4C[C@@H]([O-])CC[C@]4(C)C3CC[C@@]21C.[Ti+4] (some centres undefined) ?
Output line: > 100 µM

Input line: Same again, this time with `O=C(N/N=C/c1c(-c2ccccc2)no[n+]1[O-])N1CCOCC1`
Output line: > 100 µM

====

In this section, each of the molecules is paired with its reported TGI.
system: KM12 colon; assay: NCI tumour cell line growth inhibition, 48 h

Some molecules with known TGI results, for comparison:
molecule	targetOfAssay	TGI
O=C1O/C(=C\c2ccccc2)N(c2ccccc2)C1=O	KM12 colon	> 100 µM
C1CCCCC2(CCCCCCCCC3(CCC1)OCCO3)OCCO2	KM12 colon	> 100 µM
Cc1ccc(Cc2cnc(NC(=O)/C=C/c3cccc(C)c3)s2)cc1	KM12 colon	> 48.4 µM

Input line: Any idea what its TGI is? The molecule is `O=c1c2cc(-c3ccccc3)sc2nc2n1N=C(c1ccc(Cl)cc1)CS2`
Output line: > 100 µM

====

test system: HCT-116 colon; assay: NCI tumour cell line growth inhibition, 48 h; in the data active means GI50 below about 0.43 µM; inactive means the rest
Hi there, use one of these labels in your reply, thanks! active, inactive

Answered cases to consult:
compound	groupLabel
COc1cccc(/C=C/[N+](=O)[O-])c1	inactive
Cc1ccc(Cc2cnc(NC(=O)/C=C/c3cccc(C)c3)s2)cc1	active
CC(=Nc1ccccc1)C1=C(O)C(Cc2ccc(O)cc2)NC1=O (stereo not given)	active
Cc1cc(-c2nc3sccn3c2/C=N/N=C(N)N)c(C)s1	inactive
COc1cc2c(cc1OC)-c1ccc3cc4c(cc3c1N(CCCn1ccnc1)C2)OCO4	inactive
CNC(=S)NC(=O)c1c(Cl)n(C(=O)OC(C)(C)C)c2ccccc12	inactive
COc1cc(N2CCC(N3CCN(C)CC3)CC2)ccc1Nc1ncnc(Nc2ccccc2S(=O)(=O)C(C)C)n1	inactive
Cc1ccc2c(-c3ccnc(Nc4ccccc4)n3)c(-c3ccc(F)cc3)nn2n1	inactive
N#CC1=C(N)Oc2c(ccc3ccccc23)C1c1ccccc1 (stereo not given)	active
Cc1nc2sc(C(=O)Nc3cccc4ccccc34)c(N)c2cc1C(O)c1ccccc1 (stereo not given)	active

Would you kindly look at the next entry?
Input line: For this compound, state the assay outcome: `COc1ccc(/C(COc2ccc3c(=O)c(-c4ccccc4)coc3c2)=N\O)cc1`
Output line: inactive

====

system: A498 renal; test: NCI tumour cell line growth inhibition, 48 h
Reported TGI is given for each of the following compounds.

compound	quantityMeasured	assayResult
CCCSc1ccc2[nH]c(/N=C/c3ccccc3)cc2c1	TGI	60.1 µM
COc1ccc(-c2cc(-c3ccc(Cl)cc3)nc(SCCCC(=O)NO)n2)cc1	TGI	3.28 µM
COc1ccc(/C=C2\CN(C)C/C(=C\c3ccc(OC)cc3)C2=O)cc1	TGI	> 100 µM
CCOC(=O)Cc1ccc2c(c1O)C(=O)c1c(ccc(CC(=O)OCC)c1O)C2=O	TGI	> 100 µM
O=C1[C@H]2ON(c3ccccc3)C(c3ccccc3)[C@H]2C(=O)N1c1ccc(Cc2ccc(N3C(=O)[C@@H]4ON(c5ccccc5)C(c5ccccc5)[C@@H]4C3=O)cc2)cc1 (some centres undefined)	TGI	> 100 µM
O=C1c2ccccc2C(=O)N1CC1S(=O)(=O)OCCOS1(=O)=O	TGI	> 100 µM
CO[C@@H]1C[C@H]2[C@@H]3CC[C@H]([C@@H](C)CO)[C@@]3(C)CC[C@@H]2[C@@]2(C)CC[C@H]3C[C@]312	TGI	> 100 µM
Cc1cccc(C)c1NC(=O)C(=O)CC(=O)/C=C/c1ccccc1	TGI	> 100 µM

Proceed to the following item.
Input line: Look up TGI with A498 renal for this compound: `CCN(Cc1ccccc1)c1ccc(CO)c(Cl)c1`
Output line: 0.169 µM

====

test system: UACC-62 melanoma; test: NCI tumour cell line growth inhibition, 48 h; in the data active = GI50 below about 0.43 µM; inactive = the rest
Answer with one of the outcomes given here: 1 for active, -1 for inactive

Worked examples, 3 compounds total:
compound	groupLabel
CC(C)[O-].CC(C)[O-].O=C1C=C([O-])C(=O)c2ccccc21.O=C1C=C([O-])C(=O)c2ccccc21.[Ti+4]	-1
COc1cc(-c2ccc(-c3ccc(C(=N)N)nc3)s2)cc(OC)c1OC	-1
C=C1C(=O)O[C@H]2[C@H]1CC/C(COC(=O)C(=O)c1cn(C)c3ccc(Cl)cc13)=C\CC[C@@]1(C)O[C@@H]21	1

Input line: Outcome logged for `O=C1NC(=O)C(c2ccccc2Cl)=C1Nc1cc(Cl)c(O)c(Cl)c1` in this assay:
Output line: -1

Input line: Field entry: Cc1nc2sc(C(=O)Nc3cccc4ccccc34)c(N)c2cc1C(O)c1ccccc1 (centres undefined)
Output line: 1

Input line: Please give the result for `C/C(=N\Nc1cc(C)c2ccccc2n1)c1ccccn1` too.
Output line: 1

Input line: What do we get for `COc1cc2c(cc1OC)-c1ccc3cc4c(cc3c1N(CCCn1ccnc1)C2)OCO4` ?
Output line: -1

Input line: For `Cc1cc(-c2nc3sccn3c2/C=N/N=C(N)N)c(C)s1` then?
Output line: -1

Input line: What would you report for `Cc1ccc2c(-c3ccnc(Nc4ccccc4)n3)c(-c3ccc(F)cc3)nn2n1` ?
Output line: -1

====

test system: KM12 colon; experiment: NCI tumour cell line growth inhibition, 48 h; in the data active = GI50 below about 0.43 µM; inactive = the rest
Outcome field: choose from active, inactive

Observe how each entry below is paired with its result.
C/C(=N\Nc1cc(C)c2ccccc2n1)c1ccccn1 active
COc1cc2ncn(-c3cc(O[C@@H](C)c4ccccc4Cl)c(C(N)=O)s3)c2cc1OC inactive
O=C1NC(=O)C(c2ccccc2Cl)=C1Nc1cc(Cl)c(O)c(Cl)c1 inactive
COc1cc(-c2ccc(-c3ccc(C(=N)N)nc3)s2)cc(OC)c1OC inactive
CNC(=S)NC(=O)c1c(Cl)n(C(=O)OC(C)(C)C)c2ccccc12 inactive

# evaluate next
Input line: Fill in: this test's call for `N#Cc1ccc2c(c1)C(=O)c1c-2n(CCCCl)c(=O)c2cc([N+](=O)[O-])ccc12` is ___
Output line: inactive
